Data credit: patent US7384931B2

biological target: CGRP receptor (Homo sapiens, UniProt O60894+Q16602); assay: CGRP radioligand binding assay ([125I]-CGRP displacement, SK-N-MC homogenate); set-up: endogenous in cells; host or cells: SK-N-MC cells (homogenate/membrane pellet); settings: displacement of [125I]-CGRP, room temperature 2 h
Sequence (Q16602 23-461): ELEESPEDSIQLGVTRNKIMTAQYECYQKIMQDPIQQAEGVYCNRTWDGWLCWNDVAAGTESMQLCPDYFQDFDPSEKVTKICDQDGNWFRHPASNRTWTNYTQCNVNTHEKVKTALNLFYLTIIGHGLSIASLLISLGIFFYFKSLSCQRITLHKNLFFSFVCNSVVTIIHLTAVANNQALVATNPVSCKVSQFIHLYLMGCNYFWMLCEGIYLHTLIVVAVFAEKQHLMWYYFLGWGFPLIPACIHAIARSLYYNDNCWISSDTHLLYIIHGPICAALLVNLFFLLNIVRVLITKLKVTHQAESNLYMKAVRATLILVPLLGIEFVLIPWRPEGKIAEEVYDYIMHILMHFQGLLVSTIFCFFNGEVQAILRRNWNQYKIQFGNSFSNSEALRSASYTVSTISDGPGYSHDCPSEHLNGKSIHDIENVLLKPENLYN
Sequence (O60894 27-148): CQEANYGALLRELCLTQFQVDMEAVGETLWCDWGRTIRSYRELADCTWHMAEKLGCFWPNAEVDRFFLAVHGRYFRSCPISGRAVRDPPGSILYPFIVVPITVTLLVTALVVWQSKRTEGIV
reportedEndpoint: IC50

[Q] IC50 for CC(C)(C)CN1Cc2c(cc(Cl)c3[nH]ncc23)C[C@@H](CC(=O)N2CCC(N3Cc4ccccc4CC3=O)CC2)C1=O ?
[A] 0.1 to 10 nM

[Q] Look at this compound and give its reported IC50. CC(C)N1Cc2c(ccc3[nH]ncc23)C[C@@H](NC(=O)N2CCC(N3Cc4ccccc4NC3=O)CC2)C1=O
[A] 10 to 100 nM

[Q] Suppose we examine the compound CN1Cc2c(cc(Br)c(O)c2Br)CC(NC(=O)N2CCC(N3Cc4ccccc4NC3=O)CC2)C1=O (stereo not shown) ; what IC50 value has been reported?
[A] 100 to 1000 nM

[Q] Give its IC50 value. Item: CC(C)(C)CN1Cc2c(ccc3[nH]ncc23)C[C@@H](CC(=O)N2CCC(c3cnc4ccccc4c3)CC2)C1=O
[A] > 1000 nM

[Q] Recorded IC50 of Cc1cc2c(c3cn[nH]c13)CN(C)C(=O)C(NC(=O)N1CCC(N3Cc4ccccc4NC3=O)CC1)C2 (stereo not shown) , please.
[A] 10 to 100 nM

[Q] What measured IC50 goes with O=C(C[C@@H]1Cc2cc(Cl)c3[nH]ncc3c2CN(CC(F)(F)F)C1=O)N1CCC(N2Cc3ccccc3NC2=O)CC1 ?
[A] 0.1 to 10 nM

[Q] Need IC50 of O=C(C[C@@H]1Cc2cc(Cl)c3[nH]ncc3c2CN(Cc2ccncc2)C1=O)N1CCC(c2cc3ccccc3[nH]c2=O)CC1 , thanks.
[A] 0.1 to 10 nM
